assay: growth inhibition of DIPG cells – cell-based, MIPE4.0 library, CellTiter-Glo luminescence, qHTS (AID 1347066); settings: SU-DIPG-VI viability, CellTiter-Glo ATP luminescence;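 also: cells exposed to compound for 48 hours before readout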
Records with an inconclusive call do not appear. Active and inactive are the calls of the source. The limit is not given here; nearly all actives have AC50 up to about 30 µM.
VALUE_KIND: AC50

{"columns": ["COMPOUND", "AC50"],
 "data": [
  ["CN[C@@H](C)C(=O)N[C@H]1CCCC[C@H]2CC[C@@H](C(=O)N[C@@H](c3ccccc3)c3cn(CCCCc4ccc(CCCCn5cc([C@@H](NC(=O)[C@@H]6CC[C@@H]7CCCC[C@H](NC(=O)[C@H](C)NC)C(=O)N76)c6ccccc6)nn5)cc4)nn3)N2C1=O", "inactive"],
  ["Nc1n[nH]c2nnc(-c3c(-c4ccccc4)nn4ccccc34)cc12", "2.96 µM (active)"],
  ["COc1cc(O)c2c(c1)C1OC1C[C@H](O)[C@H](O)C(=O)/C=C\\C[C@H](C)OC2=O (stereo partly drawn)", "13.2 µM (active)"],
  ["c1ccc(-c2oc3ncnc(NC[C@@H]4CCCO4)c3c2-c2ccccc2)cc1", "20.9 µM (active)"],
  ["Cc1cncc2cccc(S(=O)(=O)N3CCCN(C(=O)CN)C[C@@H]3C)c12", "inactive"],
  ["C=Cc1c(C)c2cc3nc(cc4[nH]c(cc5nc(cc1[nH]2)C(C)=C5CCC(=O)O)c(CCC(=O)OC)c4C)[C@@]1(C)C3=CC=C(C(=O)OC)[C@H]1C(=O)OC", "14.8 µM (active)"]
]}

The value of AC50 measured for the compound COc1ccc(C2=N[C@H](c3ccc(Cl)cc3)[C@H](c3ccc(Cl)cc3)N2C(=O)N2CCNC(=O)C2)c(OC(C)C)c1 turned out to be inactive

The value of AC50 measured for the compound O=S(=O)(O)c1ccc2cc(N=Nc3cc(S(=O)(=O)O)c4cccnc4c3O)ccc2c1 turned out to be inactive

The value of AC50 measured for the compound O=c1[nH]nc(OCCCc2ccc(Cl)cc2)c(NCc2cccnc2)c1Br turned out to be 18.7 µM (active)

The value of AC50 measured for the compound C=C1[C@H](n2cnc3c(=O)[nH]c(N)nc32)C[C@H](O)[C@H]1CO turned out to be inactive

The value of AC50 measured for the compound C[C@@H]1CCN(C(=O)CC#N)C[C@@H]1N(C)c1ncnc2[nH]ccc12 turned out to be inactive

The value of AC50 measured for the compound O=C1CCCC(=O)C1C(=O)c1ccc(C(F)(F)F)cc1[N+](=O)[O-] turned out to be inactive

The value of AC50 measured for the compound NC(=O)[C@@H](CCC(F)(F)F)N(Cc1ccc(-c2ncon2)cc1F)S(=O)(=O)c1ccc(Cl)cc1 turned out to be inactive

---

experiment: drug combination growth inhibition, ovarian cancer – cell-based, oncology-focused library, rucaparib conditional, profiling panel (AID 1508598); details: patient-derived ovarian cancer cells, CellTiter-Glo viability, 144 h; at 5 µM; OCI-P5x cells; with rucaparib 20 µM; active compounds read low; 100% = cells with rucaparib alone
Mark t only when viability stays strictly below 30%. Values equal to the cut-off are f.

{"columns": ["COMPOUND_SMILES", "GROUP"],
 "data": [
  ["CNC(=O)c1ccc(N2C(=S)N(c3ccc(C#N)c(C(F)(F)F)c3)C(=O)C2(C)C)cc1F", "f"]
]}

### Prompt Given Nc1nc(Nc2ccc(S(N)(=O)=O)cc2)nn1C(=O)c1c(F)cccc1F , is recorded viability strictly lower than 30%?
### Response t

### Prompt Given C#Cc1cccc(Nc2ncnc3cc(OC)c(OCCCCCCC(=O)NO)cc23)c1 , is recorded viability strictly lower than 30%?
### Response t
